- system.tested: Prothrombin (Homo sapiens, UniProt P00734)
- experimental.protocol: Inhibition of thrombin
recorded.endpoint: Ki (nM)

1: N=C(N)N1CCCC(C[C@H](NC(=O)CN2C(=O)CN(CCCc3ccccc3)C(=O)[C@H]2Cc2cccc(Cl)c2)C(=O)c2nccs2)C1 (stereo not given in full)
2: N=C(N)N1CCCC(C[C@H](NC(=O)CN2C(=O)CN(CCCc3ccccc3)C(=O)[C@H]2Cc2ccccc2)C(=O)N2CCCCC2)C1 (stereo not given in full)
IN: Please compare: 1 and 2 . Report which one has the smaller Ki value. Identify your selection by its label.
OUT: 1
(1: 20 nM, 2: 825 nM)

---

- system.tested: Prothrombin (Homo sapiens)
pKi: −log10 of the molar value.
recorded.endpoint: pKi

INSERT INTO assay_data (molecule, recorded_endpoint, result_value) VALUES
  ('N=C(N)N1CCCC(C[C@H](NC(=O)CN2C(=O)CN(CCCc3ccccc3)C(=O)[C@H]2Cc2ccc3ccccc3c2)C(=O)c2nccs2)C1 (stereo partly drawn)', 'pKi', 7.26);

P: N=C(N)N1CCCC(C[C@H](NC(=O)CN2C(=O)CN(CCCc3ccccc3)C(=O)[C@H]2Cc2ccccc2)C(=O)N2CCCC2)C1 (stereo partly drawn)
Q: CNC(=O)[C@H](CC1CCCN(C(=N)N)C1)NC(=O)CN1C(=O)CN(CCCc2ccccc2)C(=O)[C@H]1Cc1ccccc1 (stereo partly drawn)
IN: # min-compare on pKi between P and Q Lab log: write the label of the selected item as the result.
OUT: P
(P: 6.89, Q: 7.26)
